- targetSystem: human 5-HT2C receptor (Homo sapiens, UniProt P28335)
- Sequence (P28335 33-458): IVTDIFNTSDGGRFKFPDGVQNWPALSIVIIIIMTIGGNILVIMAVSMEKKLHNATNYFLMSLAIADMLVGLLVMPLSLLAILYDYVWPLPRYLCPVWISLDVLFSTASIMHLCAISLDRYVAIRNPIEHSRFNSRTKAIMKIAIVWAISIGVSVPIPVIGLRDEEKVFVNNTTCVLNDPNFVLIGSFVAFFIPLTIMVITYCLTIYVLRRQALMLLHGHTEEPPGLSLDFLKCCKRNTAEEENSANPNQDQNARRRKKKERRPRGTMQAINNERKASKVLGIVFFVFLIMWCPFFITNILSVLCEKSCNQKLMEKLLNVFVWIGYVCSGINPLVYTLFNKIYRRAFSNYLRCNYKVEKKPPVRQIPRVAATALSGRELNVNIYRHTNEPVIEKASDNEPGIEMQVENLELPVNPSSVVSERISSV
- testProtocol: 5-HT2C receptor-stimulated calcium mobilization (FLIPR) in CHO cells
- conditionLabel: calcium mobilization, CHO cells expressing human 5-HT2C; read-out: 5-HT2C Function EC50
For each entry below, report its log10(EC50) value.
Give log10 of EC50, with EC50 taken in nM.

Hey, quick one: what's log10(EC50) for each of these?
1. C[C@@H](N)[C@H]1Cc2ccc3c(c2O1)CCC3 (single isomer, unassigned)
2. Cc1cc2c(c3c1CCC3)OC(CN)C2 (single isomer, unassigned; (-)) [Example 9]
3. NCC1Cc2cc(Cl)c3c(c2O1)CCC3 (single isomer, unassigned; (-)) [Example 30]
4. NCC1Cc2ccc3c(c2O1)CCC3 (racemic) [Example 1]
5. NCC1Cc2c(Cl)cc3c(c2O1)CCC3 (single isomer, unassigned; (-)) [Example 26]
6. COc1cc2c(c3c1C1CCC3CC1)OC(CN)C2 (racemic) [Example 19]

1.18
1.04
2.37
1.49
1.94
1.40

Hey, quick one: what's log10(EC50) for each of these?
1. NCC1Cc2ccc3c(c2O1)CCCC3 (racemic) [Example 4]
2. CNCC1Cc2cc(Cl)c3ccccc3c2O1 (racemic)
3. NCC1Cc2ccc3c(c2O1)CCCC3 (single isomer, unassigned; (+)) [Example 5]
4. NCC1Cc2cc(Cl)c3ccccc3c2O1 (racemic)
5. NCC1Cc2cc(Cl)c3c(c2O1)CCC3 (single isomer, unassigned; (+)) [Example 31]
6. NCC1Cc2ccc3c(c2O1)CCC3 (single isomer, unassigned; (+)) [Example 2]
7. NCC1Cc2cc(Cl)c3c(c2O1)CCC3 (racemic) [Example 29]

1. 1.88
2. 1.96
3. 1.58
4. 1.45
5. 1.00
6. 0.90
7. 0.76

====

For each entry below, report its 5-HT2C Function Emax (%) value.
- targetSystem: human 5-HT2C receptor (Homo sapiens, UniProt P28335)
- testProtocol: 5-HT2C receptor-stimulated calcium mobilization (FLIPR) in CHO cells
- Assay type: cell-based
- conditionLabel: percentage of the response to a maximally effective concentration of 5-HT
Answers are plain numbers, in %.

compound="COc1cc2c(c3c1C1CCC3CC1)OC(CN)C2 (single isomer, unassigned; (-)) [Example 21]" unitslabel=% testvalue=90

Hey, quick one: what's 5-HT2C Function Emax (%) for each of these?
1. Cc1cc2c(c3c1CCC3)OC(CN)C2 (single isomer, unassigned; (-))
2. NCC1Cc2cc(Cl)c3c(c2O1)CCC3 (single isomer, unassigned; (-)) [Example 30]
3. NCC1Cc2ccc3c(c2O1)CCC3 (single isomer, unassigned; (+)) [Example 2]
4. NCC1Cc2cc(Cl)c3c(c2O1)CCC3 (single isomer, unassigned; (+)) [Example 31]
5. NCC1Cc2ccc3c(c2O1)CCCC3 (single isomer, unassigned; (+)) [Example 5]
6. NCC1Cc2c(Cl)cc3c(c2O1)CCC3 (single isomer, unassigned; (+))
7. NCC1Cc2ccc3c(c2O1)CCC3 (single isomer, unassigned; (-)) [Example 3]

100
80
75
40
70
60
100
